Where these numbers come from: patent US8546381B2

- tested system: human recombinant histamine H1 receptor (Homo sapiens, UniProt P35367)
- Construct: expressed in transfected cells; host or cells: CHO cells
- Sequence (P35367 whole entry): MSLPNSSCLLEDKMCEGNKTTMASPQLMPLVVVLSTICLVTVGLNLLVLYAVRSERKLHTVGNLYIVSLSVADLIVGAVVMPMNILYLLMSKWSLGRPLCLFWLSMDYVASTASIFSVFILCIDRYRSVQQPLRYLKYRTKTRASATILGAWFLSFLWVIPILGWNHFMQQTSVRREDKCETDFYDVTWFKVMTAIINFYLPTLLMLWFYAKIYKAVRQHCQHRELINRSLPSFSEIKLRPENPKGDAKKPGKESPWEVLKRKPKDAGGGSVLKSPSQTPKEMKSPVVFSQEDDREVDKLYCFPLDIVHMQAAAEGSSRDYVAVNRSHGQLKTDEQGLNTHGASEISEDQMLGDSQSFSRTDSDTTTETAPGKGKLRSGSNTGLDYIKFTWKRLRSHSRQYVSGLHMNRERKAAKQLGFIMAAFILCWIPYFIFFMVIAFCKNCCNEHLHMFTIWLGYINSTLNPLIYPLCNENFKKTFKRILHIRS
- assay remarks: Histamine H1 radioligand binding ([3H]Pyrilamine)
- setup conditions: compound at 1 μM; inhibition of specific [3H]Pyrilamine binding; read-out: Histamine Binding (1 μM) H1, Percentage Inhibition
- Procedure: To evaluate in radioligand binding assays the activity of compounds of the invention, human recombinant histamine H1 receptor expressed in Chinese hamster ovary (CHO) cells (De Backer, M. D. et al., Biochem. Biophys. Res. Comm. 197(3):1601, 1993) in a modified Tris-HCl buffer (50 mM Tris-HCl, pH 7.4, 2 mM MgCl2, 100 mM NaCl, 250 mM Sucrose) was used. […] Receptor proteins were filtered and washed, the filters were then counted to determine [^3H]Pyrilamine specifically bound. […]
readout: inhibition at 1 µM (%)
The reply should be a number in %, with the unit left off.

CN1C2CCC1c1c(n(CCc3ccc(C(F)(F)F)nc3)c3ccc(Cl)cc13)C2 (stereo not drawn); 52
Cc1ccc2c(c1)c1c(n2CCc2nc(-c3ccccc3)cs2)CC2CCC1N2C (stereo not drawn); 93

Reported inhibition at 1 µM ( Cc1ccc2c(c1)c1c(n2CCc2ccccc2)CC2CCCC1N2C (stereo not drawn) ) = 86

Reported inhibition at 1 µM ( C/C(=C\n1c2c(c3cc(C)ccc31)C1CCC(C2)N1C)c1ccc(F)cc1 (stereo not drawn) ) = 31

Reported inhibition at 1 µM ( Cc1ccc(CCn2c3c(c4cc(Cl)ccc42)C2CCC(C3)N2C)cc1 (stereo not drawn) ) = 98
